# TESTED ON: Na^+ channel in crude membrane preparation (trachea epithelial) (Bos taurus, UniProt A5D7U4+F1MJW3+P55270)
# Construct: results for both the purified reconstituted channel protein and for the crude membrane preparation
# Sequence (P55270 whole entry): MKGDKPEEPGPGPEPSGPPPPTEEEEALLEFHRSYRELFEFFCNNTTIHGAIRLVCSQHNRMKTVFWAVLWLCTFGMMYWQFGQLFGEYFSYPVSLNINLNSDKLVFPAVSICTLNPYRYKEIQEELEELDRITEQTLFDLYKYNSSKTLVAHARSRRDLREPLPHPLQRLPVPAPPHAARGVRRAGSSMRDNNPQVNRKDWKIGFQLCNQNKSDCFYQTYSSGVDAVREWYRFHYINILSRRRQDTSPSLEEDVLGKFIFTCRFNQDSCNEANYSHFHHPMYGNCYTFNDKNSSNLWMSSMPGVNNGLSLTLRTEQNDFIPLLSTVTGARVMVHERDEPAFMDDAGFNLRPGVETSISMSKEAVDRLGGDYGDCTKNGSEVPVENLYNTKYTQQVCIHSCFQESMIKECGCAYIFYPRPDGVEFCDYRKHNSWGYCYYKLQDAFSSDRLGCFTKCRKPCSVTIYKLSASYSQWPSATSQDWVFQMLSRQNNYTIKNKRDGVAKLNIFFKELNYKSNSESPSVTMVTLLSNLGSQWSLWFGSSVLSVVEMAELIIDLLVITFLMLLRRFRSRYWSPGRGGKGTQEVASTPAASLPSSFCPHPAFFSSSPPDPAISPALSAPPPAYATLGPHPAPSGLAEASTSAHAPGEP
# Sequence (A5D7U4 whole entry): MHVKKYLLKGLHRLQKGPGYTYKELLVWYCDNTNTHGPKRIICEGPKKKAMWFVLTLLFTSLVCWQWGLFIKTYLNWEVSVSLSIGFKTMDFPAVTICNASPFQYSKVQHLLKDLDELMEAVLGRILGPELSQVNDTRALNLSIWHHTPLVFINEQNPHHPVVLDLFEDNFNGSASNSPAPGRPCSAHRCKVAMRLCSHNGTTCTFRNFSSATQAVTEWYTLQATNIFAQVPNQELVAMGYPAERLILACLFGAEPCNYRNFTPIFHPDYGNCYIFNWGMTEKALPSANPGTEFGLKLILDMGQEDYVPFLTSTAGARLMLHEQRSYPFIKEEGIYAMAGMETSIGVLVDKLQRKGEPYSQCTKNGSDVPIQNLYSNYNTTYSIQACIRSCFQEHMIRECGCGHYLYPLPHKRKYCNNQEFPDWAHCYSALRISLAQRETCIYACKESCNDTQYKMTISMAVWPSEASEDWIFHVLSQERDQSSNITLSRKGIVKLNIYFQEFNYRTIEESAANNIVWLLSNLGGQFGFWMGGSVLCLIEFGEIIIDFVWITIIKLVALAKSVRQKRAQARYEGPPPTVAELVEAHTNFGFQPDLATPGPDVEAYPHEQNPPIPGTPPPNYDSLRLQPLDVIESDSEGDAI
# Sequence (F1MJW3 whole entry): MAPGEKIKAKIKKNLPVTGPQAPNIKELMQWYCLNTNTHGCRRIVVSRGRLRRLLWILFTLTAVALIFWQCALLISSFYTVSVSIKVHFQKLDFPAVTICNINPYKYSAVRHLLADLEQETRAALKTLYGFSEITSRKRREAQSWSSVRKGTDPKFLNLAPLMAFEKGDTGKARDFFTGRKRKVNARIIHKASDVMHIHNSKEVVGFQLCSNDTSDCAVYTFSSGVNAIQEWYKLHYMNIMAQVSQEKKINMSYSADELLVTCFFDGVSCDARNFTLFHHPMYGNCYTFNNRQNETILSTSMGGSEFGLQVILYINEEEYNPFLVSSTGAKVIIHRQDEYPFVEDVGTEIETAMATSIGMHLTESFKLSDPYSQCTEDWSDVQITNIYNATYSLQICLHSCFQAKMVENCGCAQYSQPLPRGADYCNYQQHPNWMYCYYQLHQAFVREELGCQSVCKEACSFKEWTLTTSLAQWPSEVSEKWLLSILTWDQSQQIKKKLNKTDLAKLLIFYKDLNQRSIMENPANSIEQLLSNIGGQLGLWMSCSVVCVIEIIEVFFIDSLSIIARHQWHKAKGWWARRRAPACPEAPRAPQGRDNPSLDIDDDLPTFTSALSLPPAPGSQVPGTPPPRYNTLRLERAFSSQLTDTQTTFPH
# METHOD: Amiloride inhibition of crude membrane preparation

# MOLECULE, MEASUREMENT UNITS, IC50
measured = [
    ("N=C(N)NC(=O)c1nc(Cl)c(N)nc1N [amiloride]", "µM", 0.1),
]

----------
# TESTED ON: purified Na^+ channel protein (Bos taurus, UniProt A5D7U4+F1MJW3+P55270)
# Construct: purifying a membrane protein from bovine kidney cortex and bovine trachea epithelia apical membranes; from tissue
# METHOD: Amiloride inhibition of purified reconstituted channel
# Assay type: biochemical, bovine
# CONDITION NOTES: Amiloride, IC50 (micromolar), PURIFIED, Table I; trachea epithelial; purified reconstituted channel protein
pIC50: −log10 of the molar value.

# COMPOUND, pIC50
records = [
    ("N=C(N)NC(=O)c1nc(Cl)c(N)nc1N [amiloride]", 7.15),
]

----------
# TESTED ON: purified Na^+ channel protein (Bos taurus, UniProt A5D7U4+F1MJW3+P55270)
# Construct: purifying a membrane protein from bovine kidney cortex and bovine trachea epithelia apical membranes; from tissue
# METHOD: Amiloride inhibition of purified reconstituted channel
# Format: biochemical, bovine
# CONDITION NOTES: IC50 (amiloride sensitivity of purified channel), purified channel

# COMPOUND, IC50
data = [
    ("N=C(N)NC(=O)c1nc(Cl)c(N)nc1N [amiloride]", "~70 nM"),
]

All figures here come from patent US4950591A.
